pIC50: −log10 of the molar value.
Listed here: compounds with reported pIC50 for ALK tyrosine kinase receptor (Homo sapiens, UniProt Q9UM73, G1202R).
attribute-measured: pIC50

Reference set (4 entries):
COc1ccc(NC(=O)CNC(=O)c2cc(C(C)C)ccc2O)cc1Nc1ncc(Cl)c(Nc2ccccc2S(=O)(=O)C(C)C)n1 :: 7.82
COc1ccc(NC(=O)C(Cc2ccccc2)NC(=O)c2cc(C(C)C)c(O)cc2O)cc1Nc1ncc(Cl)c(Nc2ccccc2S(=O)(=O)C(C)C)n1 (stereo unspecified) :: 7.19
CC(C)c1cc(C(=O)NCC(=O)Nc2ccc(F)c(Nc3ncc(Cl)c(Nc4ccccc4S(=O)(=O)C(C)C)n3)c2)c(O)cc1O :: 7.81
COc1ccc(NC(=O)CNC(=O)c2cc(C(C)C)c(O)cc2O)cc1Nc1ncc(Cl)c(Nc2ccccc2P(C)(C)=O)n1 :: 8.11

1. COc1ccc(NC(=O)CNC(=O)c2ccc(O)c(C(C)C)c2)cc1Nc1ncc(Cl)c(Nc2ccccc2S(=O)(=O)C(C)C)n1
2. COc1ccc(NC(=O)CNC(=O)c2cc(C(C)C)c(O)cc2O)cc1Nc1ncc(Cl)c(Nc2ccccc2S(=O)(=O)C(C)C)n1
## Task Smaller pIC50 value, 1 vs 2 ? Your choice should be expressed through its label.
## Result 1
(1: 8.21, 2: 8.74)
